Data provenance is patent US20210188980A1.

# Target under test: T1, human PD-1-His protein (human, UniProt Q15116 25-167, limits assumed)
# T1 construct: also called huPD-1; not shown: His tag
# T1 sequence (Q15116 25-167 limits assumed): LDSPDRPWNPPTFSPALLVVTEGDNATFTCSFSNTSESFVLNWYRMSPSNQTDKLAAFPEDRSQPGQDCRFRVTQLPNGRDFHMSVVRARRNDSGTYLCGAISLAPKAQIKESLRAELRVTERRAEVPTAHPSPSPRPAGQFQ
# Test details: SPR Biacore
pKd: −log10 of the molar value.
Overview of reported pKd across a group of binders:
Readout kind: pKd

1. mAb703c (antibody, V domains shown) VH: DVQLQESGPGLVKPSQSLSLTCSVTGYSITTGYYWNWIRQFPGNKLEWMGYMSYDGNNNYNPSLKNRISITRDTSKNQFLLRLNSVTTEDTATYFCARDRGTTILGGTMDYWGQGTSVTVS VL: SIVMTQTPKFLFVSAGDRVTIACKASQSVSNDVAWYQQKPGQSPKLLIYYAFYRYTGVPDRFTGSGYGTDFTFTISTVQAEDLAVYFCQQDYSSPWTFGGGTKLEIK = 8.57
2. HumAb703-13 (antibody, human IgG1, kappa, L234A L235A, V domains shown, humanized mAb703) VH: EVQLQESGPGLVKPSETLSLTCAVSGYSISTGYYWNWIRQPPGKGLEWMGYMSYDGNNNYNPSLKNRITISRDTSKNQFSLKLSSVTAADTAVYYCARDRGTTILGGTMDYWGQGTTVTVSS VL: DIQMTQSPSSLSASVGDRVTITCKASQSVSNDVAWYQQKPGKAPKLLIYYAFYRYTGVPDRFSGSGYGTDFTLTISSLQPEDFATYYCQQDYSSPWTFGGGTKVEIKR = 7.98
3. HumAb703-18 (antibody, human IgG1, kappa, L234A L235A, V domains shown, humanized mAb703) VH: EVQLQESGPGLVKPSETLSLTCAVSGYSISTGYYWNWIRQPPGKGLEWMGYMSYDGNNNYNPSLKNRITISRDTSKNQFSLKLSSVTAADTAVYYCARDRGTTILGGTMDYWGQGTTVTVSS VL: DIQMTQSPSSLSASVGDRVTITCKASQSVSNDVAWYQQKPGKSPKLLIYYAFYRYTGVPDRFSGSGYGTDFTLTISSLQPEDFATYFCQQDYSSPWTFGGGTKVEIKR = 7.72
